Assay: AUC (0 to infinity) in BALB/c mouse at 3 mg/kg, iv by LC-MS/MS analysis
Format: ADME, organism-based
Design: dose 3 mg/kg, route intravenous, time infinity
Conditions: in vivo
Give criterion met when the value for AUC(0-inf) is at least 4000 ng·h/mL. Give criterion not met when it is less.

Use these answered entries as a reference point.
CC(C)CN(CCc1ccc(Br)cc1)C1CCN(c2nc(N)n[nH]2)CC1 | criterion met
CC(C)CN(CCc1ccc(Cl)cc1)C1CCN(c2nc(N)n[nH]2)CC1 | criterion met
Nc1n[nH]c(N2CCC(NS(=O)(=O)Cc3ccc(Br)cc3)CC2)n1 | criterion met
Nc1n[nH]c(N2CCC(N(CCc3ccc(Cl)cc3)Cc3ccccc3Cl)CC2)n1 | criterion not met

Note: attention shifts to another entry.
Check the entry CN(CCc1ccc(Br)cc1)C1CCN(c2nc(N)n[nH]2)CC1 : does AUC(0-inf) equal or exceed 4000 ng·h/mL?
criterion not met

====

Biological target: Chitotriosidase-1 (Homo sapiens)
Assay: Inhibition of human recombinant full length C-terminal His-tagged chitotriosidase expressed in CHO-K1 cells using 4-methylumbelliferyl-beta-D-N,N',N\"\"-triacetylchitotrioside as substrate after 60 mins by fluorescence assay
Hi! Could you tag entries with IC50 below 200 nM as Yes, and those at or above as No? Much appreciated.

Use these answered entries as a reference point.
CC(C)CN(CCc1ccc(Br)cc1)C1CCN(c2nc(N)n[nH]2)CC1 | Yes
CCN(CCc1ccc(Cl)cc1)C1CCN(c2nc(N)n[nH]2)CC1 | No
Nc1n[nH]c(N2CCC(CNC(=O)c3ccc(Br)cc3)CC2)n1 | No

Consider the compound Nc1n[nH]c(N2CCC(N(CCc3ccc(Cl)cc3)CC3CCCCC3)CC2)n1 . Is its IC50 strictly less than 200 nM?
Yes

Lookup CN(CCc1ccc(Br)cc1)C1CCN(c2nc(N)n[nH]2)CC1
Yes

====

Target: Chitotriosidase-1 (Homo sapiens)
Assay: Inhibition of human recombinant full length C-terminal His-tagged chitotriosidase expressed in CHO-K1 cells using 4-methylumbelliferyl-beta-D-N,N',N\"\"-triacetylchitotrioside as substrate after 60 mins by fluorescence assay
Hi! Could you tag entries with IC50 below 900 nM as y, and those at or above as n? Much appreciated.

Use these answered entries as a reference point.
Nc1n[nH]c(N2CCC(N(CCc3ccc(Cl)cc3)Cc3ccccc3)CC2)n1 | y
CC(C)c1ccc(CCN(C)C2CCN(c3nc(N)n[nH]3)CC2)cc1 | n
CC(C)CN(CCc1ccc(Cl)cc1)C1CCN(c2nc(N)n[nH]2)CC1 | y
CN(CCc1ccc(Cl)cc1Cl)C1CCN(c2nc(N)n[nH]2)CC1 | n
Cc1ccc(CCN(C)C2CCN(c3nc(N)n[nH]3)CC2)cc1 | n

Consider the compound Nc1n[nH]c(N2CCC(NC(=O)Cc3ccc(Br)cc3)CC2)n1 . Is its IC50 strictly less than 900 nM?
n

====

Experiment: Tmax in BALB/c mouse at 10 mg/kg, po by LC-MS/MS analysis
Assay type: ADME, organism-based
Settings: in vivo
measured parameter: Tmax (h)
Give the value, in units of h, as a plain number.

Use the examples below as a reference point.
CC(C)CN(CCc1ccc(Cl)cc1)C1CCN(c2nc(N)n[nH]2)CC1 | 0.25
Nc1n[nH]c(N2CCC(N(CCc3ccc(Cl)cc3)Cc3ccccc3Cl)CC2)n1 | 1
CN(CCc1ccc(Br)cc1)C1CCN(c2nc(N)n[nH]2)CC1 | 2
CC(C)CN(CCc1ccc(Br)cc1)C1CCN(c2nc(N)n[nH]2)CC1 | 0.5

The record that follows has no Tmax shown yet.
Could you tell me which Tmax is on file for Nc1n[nH]c(N2CCC(NS(=O)(=O)Cc3ccc(Br)cc3)CC2)n1 ?
1

====

Biological target: Chitotriosidase-1 (Homo sapiens, UniProt Q13231)
Sequence (Q13231 whole entry): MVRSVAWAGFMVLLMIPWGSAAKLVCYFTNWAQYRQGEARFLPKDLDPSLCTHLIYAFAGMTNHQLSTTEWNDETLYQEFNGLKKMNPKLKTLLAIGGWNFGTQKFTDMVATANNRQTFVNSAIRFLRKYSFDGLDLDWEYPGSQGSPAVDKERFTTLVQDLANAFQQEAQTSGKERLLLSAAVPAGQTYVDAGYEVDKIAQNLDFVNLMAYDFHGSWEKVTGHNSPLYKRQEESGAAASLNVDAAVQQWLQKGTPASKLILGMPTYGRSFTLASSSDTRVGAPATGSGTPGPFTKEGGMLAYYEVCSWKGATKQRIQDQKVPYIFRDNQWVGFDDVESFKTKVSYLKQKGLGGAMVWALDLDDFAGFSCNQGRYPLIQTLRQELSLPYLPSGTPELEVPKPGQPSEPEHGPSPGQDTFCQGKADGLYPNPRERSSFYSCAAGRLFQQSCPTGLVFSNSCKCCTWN
Experiment: Inhibition of human recombinant full length C-terminal His-tagged chitotriosidase expressed in CHO-K1 cells using 4-methylumbelliferyl-beta-D-N,N',N\"\"-triacetylchitotrioside as substrate after 60 mins by fluorescence assay
measured parameter: pIC50
Answer as the number alone; pIC50 is minus log10 of concentration in mol/L.

Nc1n[nH]c(N2CCC(N(CCc3ccc(Cl)cc3)Cc3ccccc3Cl)CC2)n1 | 6.83

Could you tell me which pIC50 is on file for CCN(CCc1ccc(Br)cc1)C1CCN(c2nc(N)n[nH]2)CC1 ?
6.98

Lookup CN(CCc1ccc(C2CC2)cc1)C1CCN(c2nc(N)n[nH]2)CC1
6.12

====

Biological target: Chitotriosidase-1 (Homo sapiens, UniProt Q13231)
Test: Inhibition of human recombinant full length C-terminal His-tagged chitotriosidase expressed in CHO-K1 cells using 4-methylumbelliferyl-beta-D-N,N',N\"\"-triacetylchitotrioside as substrate after 60 mins by fluorescence assay
Each entry below lists one item and its recorded IC50 value.
Give the value, in units of µM, as a plain number.

CN(CCc1ccc(C(C)(C)C)cc1)C1CCN(c2nc(N)n[nH]2)CC1 | 4.16
CC(C)N(CCc1ccc(Cl)cc1)C1CCN(c2nc(N)n[nH]2)CC1 | 0.945
CN(CCc1ccc(Cl)cc1)C1CCN(c2nc(N)n[nH]2)CC1 | 0.389

The record that follows has no IC50 shown yet.
Could you tell me which IC50 is on file for Nc1n[nH]c(N2CCN(CCOc3ccc(Br)cc3)CC2)n1 ?
6.76

====

Target: Chitotriosidase-1 (Homo sapiens, UniProt Q13231)
Assay: Inhibition of human recombinant full length C-terminal His-tagged chitotriosidase expressed in CHO-K1 cells using 4-methylumbelliferyl-beta-D-N,N',N\"\"-triacetylchitotrioside as substrate after 60 mins by fluorescence assay
Format: cell-based
pIC50: −log10 of the molar value.
measured parameter: pIC50

Use the examples below as a reference point.
CN(Cc1ccc(Br)cc1)CC1CCN(c2nc(N)n[nH]2)CC1 | < 4.00
Nc1n[nH]c(N2CCC(NS(=O)(=O)Cc3ccc(Br)cc3)CC2)n1 | < 4.00

The record that follows has no pIC50 shown yet.
Could you tell me which pIC50 is on file for Nc1n[nH]c(N2CCC(C(=O)NCc3ccc(Br)cc3)CC2)n1 ?
< 4.00
